Test system: Sarcina lutea ATCC 9341
Please respond with reported MIC for every item in the list.
Just the number please, in µg/mL, no unit attached.

// returns reported MIC for input O=C(NN=Cc1ccc([N+](=O)[O-])o1)c1cn2c3c(cc(F)cc3c1=O)C1CCCCC12 (stereo not shown) 100

// returns reported MIC for input O=C(O)c1cn2c3c(cccc3c1=O)C1CCCCC12 (stereo not shown) 100

// returns reported MIC for input CC(=O)Nc1ccc2c3c1c(=O)c(C(=O)O)cn3C1CCCCC21 (stereo not shown) 50

// returns reported MIC for input O=C(O)c1cn2c3c(ccc([N+](=O)[O-])c3c1=O)C1CCCCC12 (stereo not shown) 50
